# Experiment Summary: Physico-chemical properties of free fluorogens in aqueous solutions
# Assay type: physicochemical
# Run Conditions: free fluorogen
Readout Type: λabs,anionic, wavelength of maximal absorption of the anionic state (nm)

{"Compound": "COc1cc(/C=C2\\SC(=S)NC2=O)ccc1O", "Readout Unit": "nm", "Value Reported": 468}
{"Compound": "Cc1cc(C=C2SC(=S)NC2=O)ccc1O [HMBR, 4-hydroxy-3-methylbenzylidene rhodanine, reference compound]", "Readout Unit": "nm", "Value Reported": 461}
{"Compound": "Cc1cc(/C=C2\\SC(=S)NC2=O)c(C)cc1O", "Readout Unit": "nm", "Value Reported": 472}
{"Compound": "COc1cc(/C=C2\\SC(=S)NC2=O)cc(OC)c1O", "Readout Unit": "nm", "Value Reported": 484}
{"Compound": "Cc1cc(/C=C2\\SC(=S)NC2=O)cc(C)c1O", "Readout Unit": "nm", "Value Reported": 473}
